# Target entity: p110 delta (Homo sapiens (Human))
# Experimental protocol: PI3K isoform inhibition assay, p110 delta (fluorescence polarization displacement)
Test readout: log10 IC50 (log10 of the value in nM)
The figures below represent log10 of IC50, where IC50 is stated in nM.

Some entries whose results are on file:
> print(dat)
                                   molecule  test.readout  value.measured
1  Cc1nc(-c2cn3c(n2)-c2cc(-c4cnn(C)c4C4CCCN(C(C)C)C4)c(F)cc2OCC3)n(C(C)C)n1 (stereo not drawn) [Example 358]    log10 IC50            0.19
2  Cc1nc(-c2cn3c(n2)-c2ccc(-c4cnn(C)c4C4CC(N(C)C(C)C)CCO4)cc2OCC3)n(C(C)C)n1 (stereo not drawn) [Example 343]    log10 IC50           -0.03
3  Cc1nc(-c2cn3c(n2)-c2ccc(OC4(C)CCN(C(C)C)C4)cc2OCC3)n(C(C)C)n1 (stereo not drawn)    log10 IC50           -0.20
4  Cc1nc(-c2cn3c(n2)-c2ccc(N4CCCC45CCCN(C)C5)cc2OCC3)n(C(C)C)n1 (stereo not drawn) [Example 318]    log10 IC50           -0.75
5  CC(Oc1ccc2c(c1)OCCn1cc(-c3ncnn3C(C)C)nc1-2)C1CCN(C(C)C)CC1 (stereo not drawn)    log10 IC50           -0.35

Entry under test: Cc1nc(-c2cn3c(n2)-c2ccc(N4CCCC45CCCN(C)C5)cc2OCC3)n(C(C)C)n1 (stereo not drawn) [Example 314] . Its log10 IC50 was -0.47

Entry under test: Cc1nc(-c2cn3c(n2)-c2cc([C@H](C)N4CCN(C(C)C)CC4)c(F)cc2OCC3)n(C(C)C)n1 . Its log10 IC50 was 0.37

Entry under test: Cc1nc(-c2cn3c(n2)-c2cc(-c4ccnn4C4CCCN(C(C)(C)CO)C4)c(F)cc2OCC3)n(C(C)C)n1 (stereo not drawn) [Example 355] . Its log10 IC50 was -0.38

Entry under test: Cc1nc(-c2cn3c(n2)-c2ccc(OC4CC(C)CN(C(C)C)C4)cc2OCC3)n(C(C)C)n1 (stereo not drawn) . Its log10 IC50 was 0.41

Entry under test: Cc1nc(-c2cn3c(n2)-c2ccc(-c4ccnn4C4CC(C)N(C)C(C)C4)cc2OCC3)n(C(C)C)n1 (stereo not drawn) . Its log10 IC50 was 0.11

Entry under test: Cc1nc(-c2cn3c(n2)-c2ccc(-c4cnn(C)c4C4CCCCN4CC(C)(C)O)cc2OCC3)n(C(C)C)n1 (stereo not drawn) . Its log10 IC50 was -0.07

Entry under test: Cc1nc(-c2cn3c(n2)-c2ccc(N4CCCC4C4CCCN(C)C4)cc2OCC3)n(C(C)C)n1 (stereo not drawn) [Example 319] . Its log10 IC50 was 0.45

###

# Target entity: p110 delta (Homo sapiens (Human), UniProt O00329)
# Sequence (O00329 whole entry, canonical isoform): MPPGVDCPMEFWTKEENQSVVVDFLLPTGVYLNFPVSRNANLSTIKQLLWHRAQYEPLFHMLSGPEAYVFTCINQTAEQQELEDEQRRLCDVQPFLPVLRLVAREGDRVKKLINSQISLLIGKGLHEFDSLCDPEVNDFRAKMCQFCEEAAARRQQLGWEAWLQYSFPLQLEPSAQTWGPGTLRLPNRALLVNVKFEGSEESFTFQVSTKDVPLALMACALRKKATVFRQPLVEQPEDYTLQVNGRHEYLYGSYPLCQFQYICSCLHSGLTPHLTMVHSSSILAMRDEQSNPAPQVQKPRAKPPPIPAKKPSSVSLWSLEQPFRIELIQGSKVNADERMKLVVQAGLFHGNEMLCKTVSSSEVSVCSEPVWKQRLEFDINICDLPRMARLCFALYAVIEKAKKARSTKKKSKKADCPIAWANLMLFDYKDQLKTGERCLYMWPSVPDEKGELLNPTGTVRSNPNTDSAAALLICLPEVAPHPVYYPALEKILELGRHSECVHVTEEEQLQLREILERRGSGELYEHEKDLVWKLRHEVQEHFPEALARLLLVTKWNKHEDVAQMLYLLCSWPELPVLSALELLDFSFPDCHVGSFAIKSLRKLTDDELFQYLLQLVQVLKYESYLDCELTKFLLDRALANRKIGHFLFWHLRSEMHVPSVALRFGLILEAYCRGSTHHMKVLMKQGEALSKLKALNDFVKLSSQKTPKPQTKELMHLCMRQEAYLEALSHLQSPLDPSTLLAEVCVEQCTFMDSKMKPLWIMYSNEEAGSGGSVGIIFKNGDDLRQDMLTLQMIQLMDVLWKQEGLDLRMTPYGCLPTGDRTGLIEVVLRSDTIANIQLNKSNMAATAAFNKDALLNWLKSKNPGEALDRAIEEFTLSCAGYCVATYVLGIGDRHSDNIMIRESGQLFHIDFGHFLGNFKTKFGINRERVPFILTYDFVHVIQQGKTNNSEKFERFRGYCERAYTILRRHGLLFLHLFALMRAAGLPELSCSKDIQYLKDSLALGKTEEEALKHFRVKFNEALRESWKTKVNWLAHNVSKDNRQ
# Sequence (P27986 whole entry partner, canonical isoform): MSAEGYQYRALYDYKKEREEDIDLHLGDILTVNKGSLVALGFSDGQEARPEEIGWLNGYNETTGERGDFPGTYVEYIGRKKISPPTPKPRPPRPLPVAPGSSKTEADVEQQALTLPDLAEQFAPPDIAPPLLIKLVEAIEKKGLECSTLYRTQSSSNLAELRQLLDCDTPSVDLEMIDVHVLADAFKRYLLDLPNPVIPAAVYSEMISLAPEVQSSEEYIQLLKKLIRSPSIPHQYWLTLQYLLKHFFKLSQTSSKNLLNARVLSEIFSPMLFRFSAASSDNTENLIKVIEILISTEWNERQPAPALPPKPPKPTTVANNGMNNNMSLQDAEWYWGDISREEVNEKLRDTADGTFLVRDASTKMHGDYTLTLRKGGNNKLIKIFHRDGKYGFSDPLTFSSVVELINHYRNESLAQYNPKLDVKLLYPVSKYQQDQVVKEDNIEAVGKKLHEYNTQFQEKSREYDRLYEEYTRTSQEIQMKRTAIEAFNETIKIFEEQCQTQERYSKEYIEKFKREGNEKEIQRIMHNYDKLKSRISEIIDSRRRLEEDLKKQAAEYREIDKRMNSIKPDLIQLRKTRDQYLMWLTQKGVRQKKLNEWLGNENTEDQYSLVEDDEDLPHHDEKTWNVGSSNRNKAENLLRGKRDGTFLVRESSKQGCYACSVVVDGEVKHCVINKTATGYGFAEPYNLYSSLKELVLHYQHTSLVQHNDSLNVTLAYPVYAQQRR
# Experimental protocol: PI3K isoform inhibition assay, p110 delta (fluorescence polarization displacement)
Test readout: IC50 (nM)
Just the number please, in nM, no unit attached.

Some entries whose results are on file:
> print(dat)
                                   compound  measurement.units  value.measured
1  Cc1nc(-c2cn3c(n2)-c2cc(-c4cnn(C)c4C4CC(N(C)C)CCO4)c(F)cc2OCC3)n(C(C)C)n1 (stereo not drawn)                 nM            0.66
2  CCN(CC)C1CCOC(c2c(-c3ccc4c(c3)OCCn3cc(-c5nc(C)nn5C(C)C)nc3-4)cnn2C)C1 (stereo not drawn) [Example 341]                 nM           0.771

With those in mind, consider the next compound.
Entry under test: Cc1nc(-c2cn3c(n2)-c2ccc(N4CCC4C4CCN(C(C)C)CC4)cc2OCC3)n(C(C)C)n1 (stereo not drawn) . Its IC50 was 1.47
